B1: STK4 (residues 1–326) K59R [human] / HOIP (residues 854–1072) [not stated] (parent complex)
chain 1: METVQLRNPPRRQLKKLDEDSLTKQPEEVFDVLEKLGEGSYGSVYKAIHKETGQIVAIRQVPVESDLQEIIKEISIMQQCDSPHVVKYYGSYFKNTDLWIVMEYCGAGSVSDIIRLRNKTLTEDEIATILQSTLKGLEYLHFMRKIHRDIKAGNILLNTEGHAKLADFGVAGQLTDTMAKRNTVIGTPFWMAPEVIQEIGYNCVADIWSLGITAIEMAEGKPPYADIHPMRAIFMIPTNPPPTFRKPELWSDNFTDFVKQCLVKSPEQRATATQLLQHPFVRSAKGVSILRDLINEAMDVKLKRQESQQREVDQDDEENSEEDEMD
chain 2: EYQAQGLAMYLQENGIDCPKCKFSYALARGGCMHFHCTQCRHQFCSGCYNAFYAKNKCPEPNCRVKKSLHGHHPRDCLFYLRDWTALRLQKLLQDNNVMFNTEPPAGARAVPGGGCRVIEQKEVPNGLRDEACGKETPAGYAGLCQAHYKEYLVSLINAHSLDPATLYEVEELETATERYLHVRPQPLAGEDPPAYQARLLQKLTEEVPLGQSIPRRRK

variants of: B1; assay: ITC
measured.attribute: Kd (µM)

{"mutant": "chain 1 R231E", "measured.attribute": "Kd", "test.result": 97.9}

Reference source for all entries: paper PMC12441119
